biological target: HIV-1 protease (Human immunodeficiency virus type 1 group M subtype B); construct: catalytically active dimeric HIV-1 protease; experiment: HIV-1 protease enzyme-inhibitory assay (Toth and Marshall); settings: HIV-1 protease inhibitory activity
QUANTITY_MEASURED: Ki (nM)
// note: answer is a bare numeric in nM

# count of solved cases: 2
>>> test_value("COc1ccc(S(=O)(=O)N(CC(C)C)C[C@@H](O)[C@H](Cc2cc(F)cc(F)c2)NC(=O)c2ccc(C)c(Nc3nccc(-c4cccnc4)n3)c2)cc1 [Compound 5c]")
0.58
>>> test_value("COc1ccc(S(=O)(=O)N(CC(C)C)C[C@@H](O)[C@H](Cc2ccccc2)NC(=O)c2cc(Nc3nc(-c4cccnc4)cs3)ccc2C)cc1 [Compound 5h]")
8.7

Kindly review the next compound as well.
COc1ccc(S(=O)(=O)N(CC(C)C)C[C@@H](O)[C@H](Cc2ccccc2)NC(=O)c2cccc(Nc3nc(C(F)(F)F)cs3)c2C)cc1 [Compound 5o] has a reported Ki of 72
